assayName: pH stability of quenched linker-payloads in buffers (LCMS)
Assay type: physicochemical
settings: pH 3.0, 4 hr, RT
# reported percentage of the remaining compound; entries follow
Just the number in %, nothing appended.

Consider the worked cases shown below.
compound: CCCC1O[C@@H]2C[C@H]3[C@@H]4CCC5=CC(=O)C=C[C@]5(C)[C@H]4[C@@H](O)C[C@]3(C)[C@]2(C(=O)COC2CCCN2C(=O)CNC(=O)CCOCCOCCOCCOCCNC(=O)CCC(=O)N2Cc3ccccc3-c3c(nnn3CC3OC4OC5C(CO)OC(OC6C(CO)OC(OC7C(CO)OC(OC8C(CO)OC(OC9C(CO)OC(OC3C(O)C4O)C(O)C9O)C(O)C8O)C(O)C7O)C(O)C6O)C(O)C5O)-c3ccccc32)O1 (stereo partly shown)
percentage of the remaining compound / %: 8
--
compound: CC(C)[C@H](NC(=O)CCOCCOCCOCCOCCNC(=O)CCC(=O)N1Cc2ccccc2-c2c(nnn2CCOCCOCCOCCOCCC(=O)NCCS(=O)(=O)O)-c2ccccc21)C(=O)N[C@@H](CCCNC(N)=O)C(=O)Nc1ccc(COC(=O)NCC(=O)NCOCC(=O)[C@@]2(O)[C@H](C)C[C@H]3[C@@H]4CCC5=CC(=O)C=C[C@]5(C)[C@@]4(F)[C@@H](O)C[C@@]32C)cc1
percentage of the remaining compound / %: 100
--
compound: CCCC1O[C@@H]2C[C@H]3[C@@H]4CCC5=CC(=O)C=C[C@]5(C)[C@H]4[C@@H](O)C[C@]3(C)[C@]2(C(=O)COCN(C)C(=O)CNC(=O)OCc2ccc(NC(=O)[C@H](CCCNC(N)=O)NC(=O)[C@@H](NC(=O)CCOCCOCCOCCOCCNC(=O)CCC(=O)N3Cc4ccccc4-c4c(nnn4CCOCCOCCOCCOCCC(=O)NCCS(=O)(=O)O)-c4ccccc43)C(C)C)cc2)O1 (stereo partly shown)
percentage of the remaining compound / %: 100

Consider the additional compound presented here.
Data request: Give its percentage of the remaining compound value. Item: CCCC1O[C@@H]2C[C@H]3[C@@H]4CCC5=CC(=O)C=C[C@]5(C)[C@H]4[C@@H](O)C[C@]3(C)[C@]2(C(=O)COCNC(=O)CNC(=O)CCC(=O)N2Cc3ccccc3-c3c(nnn3CC3OC4OC5C(CO)OC(OC6C(CO)OC(OC7C(CO)OC(OC8C(CO)OC(OC9C(CO)OC(OC3C(O)C4O)C(O)C9O)C(O)C8O)C(O)C7O)C(O)C6O)C(O)C5O)-c3ccccc32)O1 (stereo partly shown)
Data returned: 100

###

assayName: pH stability of quenched linker-payloads in buffers (LCMS)
Type: physicochemical
settings: pH 4.0, 2 Day, RT
percentage of the remaining compound values, listed per item
Show the value, then the unit it is measured in.

Data request: So what does the record say about percentage of the remaining compound for CC(C)[C@H](NC(=O)CCOCCOCCOCCOCCNC(=O)CCC(=O)N1Cc2ccccc2-c2c(nnn2CCOCCOCCOCCOCCC(=O)NCCS(=O)(=O)O)-c2ccccc21)C(=O)N[C@@H](CCCNC(N)=O)C(=O)Nc1ccc(COC(=O)NCC(=O)NCOCC(=O)[C@@]2(O)[C@H](C)C[C@H]3[C@@H]4CCC5=CC(=O)C=C[C@]5(C)[C@@]4(F)[C@@H](O)C[C@@]32C)cc1 [Q1L1-PI] ?
Data returned: 100%

Data request: Given the compound CCCC1O[C@@H]2C[C@H]3[C@@H]4CCC5=CC(=O)C=C[C@]5(C)[C@H]4[C@@H](O)C[C@]3(C)[C@]2(C(=O)COCNC(=O)CNC(=O)CCC(=O)N2Cc3ccccc3-c3c(nnn3CC3OC4OC5C(CO)OC(OC6C(CO)OC(OC7C(CO)OC(OC8C(CO)OC(OC9C(CO)OC(OC3C(O)C4O)C(O)C9O)C(O)C8O)C(O)C7O)C(O)C6O)C(O)C5O)-c3ccccc32)O1 (stereo partly drawn) [Q2L7-PII-1] , what is its reported percentage of the remaining compound?
Data returned: 100%

Data request: Need percentage of the remaining compound, item CCCC1O[C@@H]2C[C@H]3[C@@H]4CCC5=CC(=O)C=C[C@]5(C)[C@H]4[C@@H](O)C[C@]3(C)[C@]2(C(=O)COCN(C)C(=O)CNC(=O)OCc2ccc(NC(=O)[C@H](CCCNC(N)=O)NC(=O)[C@@H](NC(=O)CCOCCOCCOCCOCCNC(=O)CCC(=O)N3Cc4ccccc4-c4c(nnn4CCOCCOCCOCCOCCC(=O)NCCS(=O)(=O)O)-c4ccccc43)C(C)C)cc2)O1 (stereo partly drawn) [Q1L1-PII-8]
Data returned: 99%

Hey, just so you know, these numbers are from patent US20230119539A1.
